- experiment-notes: chemical genetic growth profiling, strain panel (AID 1159580);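 also: tested at 20 µM; growth read once vehicle control cultures reached saturation at 30 °C; 1 = growth at the plate median or of vehicle wells; lower values mean less growth of the strain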
- test-context: S. cerevisiae deletion strains, growth OD, locus YDR318W, strain mcm21, active compounds read low
The campaign covered roughly 5,500 compounds. About 2,000 (36%) were called active. Inconclusive results (about 18%) are left out. This is one part of the list.
Exam item: assign rule met to entries whose normalized growth is below 1 and rule not met to entries at or above 1. Note that a value of exactly 1 receives rule not met.

1. CN[C@@H]1[C@@H](O[C@H]2O[C@H](CO)[C@@H](N)[C@H](O)[C@H]2O)O[C@H]2C[C@@H](N)[C@H](O[C@H]3[C@H](O)[C@@H](O)[C@H](N)C[C@@H]3N)O[C@@H]2[C@@H]1O; rule not met

Read the next record carefully.
**Query** Regarding CC(=O)O[C@@H]1CC[C@]2(C)C3CC[C@]4(C)C(=O)CCC4C3CC[C@H]2C1 (stereo partly specified) , kindly confirm whether its normalized growth is beneath 1.
**Result** rule met

----------
- experiment-notes: chemical genetic growth profiling, strain panel (AID 1159580);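 also: tested at 20 µM; growth read once vehicle control cultures reached saturation at 30 °C; 1 = growth at the plate median or of vehicle wells; lower values mean less growth of the strain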
- test-context: S. cerevisiae deletion strains, growth OD, locus YBR171W, strain sec66, active compounds read low
Among all 5,500 compounds or so, about 2,000 (36%) were called active. Roughly 18% stayed inconclusive and do not appear here. Some of the results follow.
Under this convention, MET denotes normalized growth strictly below 1 and NOT MET denotes normalized growth at or above 1.

1) CNS(=O)(=O)Cc1ccc2[nH]cc(CCN(C)C)c2c1; NOT MET

**Query** Does this molecule meet the criterion normalized growth < 1? CCOc1cccc(C(=O)c2ccc(O)c(O)c2O)c1
**Result** MET

----------
- experiment-notes: chemical genetic growth profiling, strain panel (AID 1159580);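 also: tested at 20 µM; growth read once vehicle control cultures reached saturation at 30 °C; 1 = growth at the plate median or of vehicle wells; lower values mean less growth of the strain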
- test-context: S. cerevisiae deletion strains, growth OD, locus YCL069W, strain vba3
In all, about 5,500 compounds went through this assay and about 2,000 (36%) were called active. Roughly 18% stayed inconclusive and do not appear here. Cut-off read from the data, not from the text of the source: active = normalized growth mostly below about 0.91 (no sharp cut-off); inconclusive = no clear call, values can overlap the other calls; inactive = mostly above about 0.92. The list shows a part of the results.
Result category, one only: active, inactive

Take a look at these entries with their results.
1) CC1(C)S[C@@H]2[C@H](NC(=O)Cc3ccccc3)C(=O)N2[C@H]1C(=O)O; inactive
2) COC(=O)C[C@H]1C(C)(C)[C@@H](O)[C@@H]2CC3=C4C=C(OC)O[C@@H](c5ccoc5)[C@]4(C)CCC3[C@@]1(C)C2=O (stereo not given in full); inactive
3) OCc1c[nH]c2ccccc12; inactive
4) NCCc1c[nH]c2ccccc12; inactive

**Query** Lab log entry: Cc1onc(-c2c(Cl)cccc2Cl)c1C(=O)N[C@@H]1C(=O)N2[C@@H]1SC(C)(C)[C@@H]2C(=O)O — outcome as called in the assay?
**Result** inactive

----------
Readings of normalized growth for the listed molecules
- experiment-notes: chemical genetic growth profiling, strain panel (AID 1159580);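 also: tested at 20 µM; growth read once vehicle control cultures reached saturation at 30 °C; 1 = growth at the plate median or of vehicle wells; lower values mean less growth of the strain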
- test-context: S. cerevisiae deletion strains, growth OD, locus YLR027C, strain aat2, active compounds read low
About 2,000 (36%) of roughly 5,500 compounds were called active. Inconclusive results (about 18%) are left out. This is one part of the list.
// print number alone

Sample answers from the record:
1. COc1ccc([C@H]2COc3c(ccc(O)c3OC)C2)c(OC)c1O; 1
2. CC[C@@H](CO)NC(=O)[C@@H]1C=C2c3cccc4[nH]cc(c34)C[C@H]2N(C)C1; 0.993

**Query** Consider the molecule CO[C@H]1C[C@H](O[C@H]2[C@H](C)[C@@H](OC3O[C@H](C)C[C@H](N(C)C)[C@H]3OC(C)=O)[C@@H](C)C[C@]3(CO3)C(=O)[C@H](C)[C@@H](OC(C)=O)[C@@H](C)[C@@H](C)OC(=O)[C@@H]2C)O[C@@H](C)[C@@H]1OC(C)=O (stereo partly drawn) and give its measured normalized growth.
**Result** 0.984
